Provenance of the data: the supplement of paper PMC7125110

B1: glmS ribozyme (parent)
chain: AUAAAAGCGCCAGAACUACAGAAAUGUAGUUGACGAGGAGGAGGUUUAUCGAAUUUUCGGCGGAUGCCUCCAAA

# Variants of: B1
# measurement.notes: kcat; higher = faster cleavage; RNA array
# condition.label: with glucosamine-6-phosphate
Fewer inactive variants are shown than the library holds.
Lab note: anything with kcat at or over 0.0002 s⁻¹ counts as true (1); the rest go in false (0).

1) G51A A53G = false (0)
2) A12G A33G U57A G59U = false (0)
3) G29U C58G = false (0)
4) U55A C70A = false (0)
5) G29A G40A = true (1)
6) C10A A39G = false (0)
7) A48C U54A = true (1)
8) A12U A52C C67A = false (0)
9) G40C U47C = true (1)
10) A12C C50A U56A = false (0)
11) G43A A53G = false (0)
12) G40U C70U = true (1)
13) A6C C67A = false (0)
14) U31G U49C U54A G63C C68G U69G = false (0)
15) G41A U46G = true (1)
16) A39G G66C = true (1)
17) G29C A33U = false (0)
18) A14G U45A U49G = true (1)
19) A12G U54G = true (1)
20) G13U G59U C67U = false (0)
21) A36U C67U = false (0)
22) A14U A15U = true (1)
23) U31C C50U = false (0)
24) A14G C70A = true (1)
25) A39G U57C = true (1)
26) G37A C71U = true (1)
27) U31G U47A = true (1)
28) A6G U46G C68U = false (0)
29) G66C C67U = false (0)
30) A15C U31G = true (1)
31) U31G G40A = true (1)
32) G41U C70U = true (1)
33) C11A G59U = true (1)
34) U30A U55C G66C = false (0)
35) G32A C67U C71G = false (0)
36) U45A C70A = true (1)
37) C11U C58A = false (0)
38) C16U U46G = true (1)
39) A64C C70U = false (0)
40) G13A U47A = true (1)
41) G32A C68A = false (0)
42) A42G U46G = true (1)
43) A42C U46A = false (0)
44) G40U C70G = true (1)
45) A39U G44A = true (1)
46) A39U G66U = true (1)
47) C61A C68A = false (0)
48) G37C G38U = false (0)
49) C61A C67G = false (0)
50) U55C U56C = false (0)
51) G51U C67A C71U = false (0)
52) U31G A53C = true (1)
53) A12G A33U = false (0)
54) U47A U56C = true (1)
55) A48G C67G = false (0)
56) C34U G43A = false (0)
57) A15G A39G = true (1)
58) U31A A39U = true (1)
59) U54C U65G = true (1)
60) A42U C67U = false (0)
61) U56A G60A = false (0)
62) A52U C70U = true (1)
63) G32C A53U = false (0)
64) A15C U56A G63C C70A = false (0)
65) G51U A52G = false (0)
66) A14C C70A = false (0)
67) A15G A64C = false (0)
68) A15U U69A = false (0)
69) U47G A53G = true (1)
70) A12G G66U = true (1)
71) U49C C50U = false (0)
72) A15G U46C = true (1)
73) A53G G60A = false (0)
74) C16A C50A U69C = false (0)
75) A52U C68U = true (1)
76) G9U A33U = false (0)
77) A14U U47C = true (1)
78) U49G C70U = true (1)
79) U31G U45A = true (1)
80) U31C U65A = true (1)
81) A15G G59U C67U = false (0)
82) A6G G66A = true (1)
